Cited source: paper PMC11822212

// values below are reported Control-VP-MCC
Test system: VP-MCC cell lines (WAGA, MKL-1, MKL-2)
measurement.notes: qHTS cell viability, VP-MCC cell lines as a group (mean AUC, VP.MCC.avg)
Format: cell-based, human
experimental.setup: MIPE library, Control AUC minus VP-MCC AUC (therapeutic window), sheet S2E
result.type: Control-VP-MCC

[[record]]
molecule = "C=Cc1c(C)c2cc3nc(cc4[nH]c(cc5nc(cc1[nH]2)C(C)=C5CCC(=O)O)c(CCC(=O)OC)c4C)[C@@]1(C)C3=CC=C(C(=O)OC)[C@H]1C(=O)OC"
result_type = "Control-VP-MCC"
assay_value = 208.806

[[record]]
molecule = "CC#C[C@]1(O)CC[C@H]2[C@@H]3CCC4=CC(=O)CCC4=C3[C@@H](c3ccc(N(C)C)cc3)C[C@@]21C"
result_type = "Control-VP-MCC"
assay_value = 171.607

[[record]]
molecule = "O=C(CCCCCCC(=O)Nc1cccnc1)NO [Pyroxamide]"
result_type = "Control-VP-MCC"
assay_value = 81.0267


---

Tested on: UISO cells (VN-MCC)
measurement.notes: qHTS cell viability (CellTiter-Glo, 72 h; primary and follow-up small molecule screen)
Assay type: cell-based, human
experimental.setup: follow-up screen; UISO; replicate 2
Mark Criterion met only for Area under the dose-response curve (AUC) UISO Replicate 2 values smaller than 500; exact matches and larger values are Criterion not met.

[[record]]
compound = "COc1ccc([C@]2(C#N)CC[C@@H](C(=O)O)CC2)cc1OC1CCCC1"
answer_label = "Criterion met"

[[record]]
compound = "O=C(CCc1ccc(O)cc1)c1c(O)cc(O)cc1O"
answer_label = "Criterion not met"

[[record]]
compound = "O=C(CCN1CCC(c2ccccc2)C1)c1ccc2c(c1)OCCO2 (centres unmarked)"
answer_label = "Criterion met"

[[record]]
compound = "CCCCCCCCCCCC1=C(O)C(=O)C=C(O)C1=O"
answer_label = "Criterion met"

[[record]]
compound = "COc1ccc(C(=O)CC(=O)c2ccc(C(C)(C)C)cc2)cc1"
answer_label = "Criterion met"


---

System: VN-MCC cell lines (MCC13, MCC26, UISO)
measurement.notes: qHTS cell viability, VN-MCC cell lines as a group (mean AUC, VN.MCC.avg)
Format: cell-based, human
experimental.setup: NPC library; mean AUC of VN-MCC cell lines
Counter-ions that a name gives are not always drawn.
result.type: VN-MCC_Avg_AUC

[[record]]
compound = "C[C@@H]1CN(CCCn2c3ccccc3c3ccccc32)C[C@H](C)N1.Cl.Cl [Rimcazole dihydrochloride]"
system_tested = "VN-MCC cell lines (MCC13, MCC26, UISO)"
assay_value = 450.226

[[record]]
compound = "CCCCCCCCOc1ccccc1C(=O)Nc1ccc(C(=O)OCC[N+](C)(CC)CC)cc1 [Octylonium bromide]"
system_tested = "VN-MCC cell lines (MCC13, MCC26, UISO)"
assay_value = 418.414

[[record]]
compound = "Cc1nc2ccccn2c(=O)c1CCN1CCC(C(=O)c2ccc(F)cc2)CC1 [Pirenperone]"
system_tested = "VN-MCC cell lines (MCC13, MCC26, UISO)"
assay_value = 426.258

[[record]]
compound = "Clc1ccc(C(Cn2ccnc2)OCc2ccsc2Cl)c(Cl)c1 (stereo not drawn) [Tioconazole]"
system_tested = "VN-MCC cell lines (MCC13, MCC26, UISO)"
assay_value = 459.387

[[record]]
compound = "Cl.Cl.Fc1ccc(C(OCCN2CCN(CCCc3ccccc3)CC2)c2ccc(F)cc2)cc1 [GBR 12909 dihydrochloride]"
system_tested = "VN-MCC cell lines (MCC13, MCC26, UISO)"
assay_value = 408.55

[[record]]
compound = "Cc1cc(OCCOCC[N+](C)(C)Cc2ccccc2)ccc1C(C)(C)CC(C)(C)C.[Cl-] [Methylbenzethonium chloride]"
system_tested = "VN-MCC cell lines (MCC13, MCC26, UISO)"
assay_value = 436.818

[[record]]
compound = "CC[N+]1(CC)CCC(=C(c2ccccc2)c2ccccc2)C1C (stereo not drawn) [Prifinium bromide]"
system_tested = "VN-MCC cell lines (MCC13, MCC26, UISO)"
assay_value = 472.229

[[record]]
compound = "COc1ccc(CCN(C)CCCC(C#N)(c2cc(OC)c(OC)c(OC)c2)C(C)C)cc1OC (stereo not drawn) [Gallopamil hydrochloride]"
system_tested = "VN-MCC cell lines (MCC13, MCC26, UISO)"
assay_value = 424.406

[[record]]
compound = "C#C[C@]1(OC(C)=O)CC[C@H]2[C@@H]3CCC4=CC(=NO)CC[C@@H]4[C@H]3CC[C@@]21CC (mixture of isomers) [Norgestimate]"
system_tested = "VN-MCC cell lines (MCC13, MCC26, UISO)"
assay_value = 418.896

[[record]]
compound = "[H]/N=C(/NCCCCC)N/N=C/c1c[nH]c2ccc(OC)cc12 [Tegaserod]"
system_tested = "VN-MCC cell lines (MCC13, MCC26, UISO)"
assay_value = 434.493

[[record]]
compound = "CCCC(=O)OC[C@@H](OC(=O)CCC)[C@@H](OC(=O)CCC)[C@H](Cn1c2nc(=O)[nH]c(=O)c-2nc2cc(C)c(C)cc21)OC(=O)CCC [Riboflavin tetrabutyrate]"
system_tested = "VN-MCC cell lines (MCC13, MCC26, UISO)"
assay_value = 491.721

[[record]]
compound = "O=C1CC2(CCCC2)CC(=O)N1CCCCN1CCN(c2ncccn2)CC1 [Buspirone]"
system_tested = "VN-MCC cell lines (MCC13, MCC26, UISO)"
assay_value = 437.494


---

Below: a set of entries, each annotated with reported MCC13_AUC.
Test system: MCC13 cells (VN-MCC)
measurement.notes: qHTS cell viability (CellTiter-Glo, 72 h; primary and follow-up small molecule screen)
Format: cell-based, human
experimental.setup: MIPE library, 11-point DRC, sheet S2E
Counter-ions that a name gives are not always drawn.
result.type: MCC13_AUC

[[record]]
molecule = "C=C1C(=O)[C@]23[C@H](O)[C@H]1CC[C@H]2[C@@]12CO[C@]3(O)[C@@H](O)[C@@H]1C(C)(C)CC[C@@H]2O"
system_tested = "MCC13 cells (VN-MCC)"
assay_value = 444.187

[[record]]
molecule = "CN[C@@H]1[C@H](O)[C@H](NC)[C@H]2O[C@@]3(O)C(=O)C[C@@H](C)O[C@H]3O[C@@H]2[C@H]1O.Cl.Cl [Spectinomycin dihydrochloride]"
system_tested = "MCC13 cells (VN-MCC)"
assay_value = 461.506

[[record]]
molecule = "C=Cc1c(C)c2cc3nc(cc4[nH]c(cc5nc(cc1[nH]2)C(C)=C5CCC(=O)O)c(CCC(=O)OC)c4C)[C@@]1(C)C3=CC=C(C(=O)OC)[C@H]1C(=O)OC"
system_tested = "MCC13 cells (VN-MCC)"
assay_value = 440.785

[[record]]
molecule = "O=c1cc(-c2ccc(O)cc2)oc2cc(O)cc(O)c12"
system_tested = "MCC13 cells (VN-MCC)"
assay_value = 501.623

[[record]]
molecule = "CN(C)CC[C@H](CSc1ccccc1)Nc1ccc(S(=O)(=O)NC(=O)c2ccc(N3CCN(Cc4ccccc4-c4ccc(Cl)cc4)CC3)cc2)cc1[N+](=O)[O-]"
system_tested = "MCC13 cells (VN-MCC)"
assay_value = 474.092

[[record]]
molecule = "COc1cc(/C=C/C(=O)CC(=O)/C=C/c2ccc(O)c(OC)c2)ccc1O"
system_tested = "MCC13 cells (VN-MCC)"
assay_value = 449.9

[[record]]
molecule = "Cc1[nH]c(/C=C2\\C(=O)Nc3ccccc32)c(C)c1CCC(=O)O [Orantinib]"
system_tested = "MCC13 cells (VN-MCC)"
assay_value = 429.293

[[record]]
molecule = "Cc1c(C)n(Cc2ccc(-c3ccccc3C(=O)O)cc2)c2ccc(C(=O)N[C@@H](C)c3ccc([N+](=O)[O-])cc3)cc12"
system_tested = "MCC13 cells (VN-MCC)"
assay_value = 475.759

[[record]]
molecule = "CC[C@@]1(O)C(=O)OCc2c1cc1n(c2=O)Cc2cc3c(CN(C)C)c(O)ccc3nc2-1 [Topotecan HCl]"
system_tested = "MCC13 cells (VN-MCC)"
assay_value = 336.51

[[record]]
molecule = "CC#C[C@]1(O)CC[C@H]2[C@@H]3CCC4=CC(=O)CCC4=C3[C@@H](c3ccc(N(C)C)cc3)C[C@@]21C"
system_tested = "MCC13 cells (VN-MCC)"
assay_value = 450.219

[[record]]
molecule = "CCNC(=O)Nc1ccc2ncc(Nc3ccc(C)cc3)nc2n1"
system_tested = "MCC13 cells (VN-MCC)"
assay_value = 484.886


---

Tested on: WAGA cells (VP-MCC)
measurement.notes: qHTS cell viability (CellTiter-Glo, 72 h; primary and follow-up small molecule screen)
Format: cell-based, human
Threshold 400. Area under the dose-response curve (AUC) WAGA Replicate 3 below it: YES. Area under the dose-response curve (AUC) WAGA Replicate 3 at it or above: NO.

[[record]]
molecule = "CS[C@H]1SC[C@H]2C(=O)N(C)[C@@H](C(C)C)C(=O)OC[C@@H](NC(=O)c3cnc4ccccc4n3)C(=O)N[C@@H](C)C(=O)N(C)[C@@H]1C(=O)N(C)[C@@H](C(C)C)C(=O)OC[C@@H](NC(=O)c1cnc3ccccc3n1)C(=O)N[C@@H](C)C(=O)N2C [Echinomycin]"
answer_label = "YES"

[[record]]
molecule = "COc1cccc2c1C(=O)c1c(O)c3c(c(O)c1C2=O)C[C@@](O)(C(C)=O)C[C@@H]3O[C@H]1C[C@H](N)[C@H](O)[C@H](C)O1 [Daunorubicin]"
answer_label = "YES"

[[record]]
molecule = "CC(=O)C1=C(O)[C@@H]2[C@H]3c4c[nH]c5cccc(c45)C[C@H]3C(C)(C)N2C1=O [Cyclopiazonic acid]"
answer_label = "NO"

[[record]]
molecule = "COc1cc(O)c2c(c1)oc(=O)c1c3cc(O)c(O)cc3oc21 [WEDELOLACTONE]"
answer_label = "NO"

[[record]]
molecule = "O=C(/C=C/c1ccc(/C=C/C(=O)Nc2ccc(C3=NCCN3)cc2)cc1)Nc1ccc(C2=NCCN2)cc1 [GW 4869]"
answer_label = "NO"

[[record]]
molecule = "C[n+]1cc2c3c(ccc2c2ccc4cc5c(cc4c21)OCO5)OCO3 [Sanguinarine]"
answer_label = "YES"

[[record]]
molecule = "CN(C)c1ccc(C(=C2C=CC(=[N+](C)C)C=C2)c2ccc(N(C)C)cc2)cc1.[Cl-] [Methylrosaniline chloride]"
answer_label = "YES"

[[record]]
molecule = "C[C@H]1O[C@@H](O[C@H]2[C@@H](O)C[C@H](O[C@H]3[C@@H](O)C[C@H](O[C@H]4CC[C@@]5(C)[C@H](CC[C@@H]6[C@@H]5CC[C@]5(C)[C@@H](C7=CC(=O)OC7)CC[C@]65O)C4)O[C@@H]3C)O[C@@H]2C)C[C@H](O)[C@@H]1O [Digitoxin]"
answer_label = "YES"

[[record]]
molecule = "CN(C)C(=O)Nc1ccc(Cl)c(Cl)c1 [Diuron]"
answer_label = "NO"

[[record]]
molecule = "CCCCCCCCC(=O)NCc1ccc(O)c(OC)c1 [Nonivamide]"
answer_label = "NO"

[[record]]
molecule = "CCC(=O)NC[C@H](Cc1ccc(OCCc2nc(-c3ccccc3)oc2C)cc1)N/C(C)=C\\C(=O)c1ccc(C(F)(F)F)cc1 [GW-6471]"
answer_label = "NO"

[[record]]
molecule = "CCCC[C@@H](C)/C=C(C)/C=C(\\C)C(=O)NC1=C[C@@](O)(/C=C/C=C/C=C/C(=O)NC2=C(O)CCC2=O)[C@@H]2O[C@@H]2C1=O [manumycin A]"
answer_label = "NO"

[[record]]
molecule = "CC(/C=C/C(=O)NO)=C\\[C@@H](C)C(=O)c1ccc(N(C)C)cc1 [TSA]"
answer_label = "YES"

[[record]]
molecule = "CCCNC(=O)[C@H]1O[C@@H]1C(=O)N[C@H](C(=O)N1CCC[C@H]1C(=O)OC)C(C)CC (some centres unmarked) [CA-074 Me]"
answer_label = "YES"

